B1: Twister Ribozyme (parent)
chain: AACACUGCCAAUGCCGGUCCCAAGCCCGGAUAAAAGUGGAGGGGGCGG

Variants of: B1
method_notes: self-cleavage, relative activity (ratio to wild type); higher = more cleavage; co-transcriptional
I would appreciate it if you labelled entries TRUE when self-cleavage is 0.3 or higher, otherwise FALSE.

>>> assigned_category("C9A G45A")
"TRUE"
>>> assigned_category("A34G U37A")
"TRUE"
>>> assigned_category("A22U C27U")
"TRUE"
>>> assigned_category("G7A C15G")
"FALSE"
>>> assigned_category("G29U G38A")
"TRUE"
>>> assigned_category("C21A A33C")
"FALSE"
>>> assigned_category("G16A A34U")
"TRUE"
>>> assigned_category("G39U G48A")
"FALSE"
>>> assigned_category("A1G G17U")
"FALSE"
>>> assigned_category("C9G C27A")
"FALSE"
>>> assigned_category("C3G C19U")
"FALSE"
>>> assigned_category("C14U C25G")
"TRUE"
>>> assigned_category("C21G C25U")
"FALSE"
>>> assigned_category("A1C A35G")
"FALSE"
>>> assigned_category("C9A G42C")
"FALSE"
>>> assigned_category("U6C C25G")
"FALSE"
>>> assigned_category("C25A C26G")
"FALSE"
>>> assigned_category("C25U C27U")
"TRUE"
>>> assigned_category("C5A U6C")
"FALSE"
>>> assigned_category("C15U G29A")
"TRUE"
>>> assigned_category("C20G G38A")
"FALSE"
>>> assigned_category("G44A")
"TRUE"
>>> assigned_category("G29U A33C")
"TRUE"
>>> assigned_category("G17U U37A")
"FALSE"
>>> assigned_category("A11C G29A")
"TRUE"
>>> assigned_category("A10G C46G")
"TRUE"
>>> assigned_category("C19U C26U")
"FALSE"
>>> assigned_category("G13C G36U")
"FALSE"
>>> assigned_category("U6A G13A")
"FALSE"
>>> assigned_category("C9G C21U")
"FALSE"
>>> assigned_category("C20G A40C")
"FALSE"
>>> assigned_category("G7A G38C")
"TRUE"
>>> assigned_category("C27G G41A")
"FALSE"
>>> assigned_category("A34G A35U")
"TRUE"
>>> assigned_category("C14A C21U")
"FALSE"
>>> assigned_category("C5A G43C")
"FALSE"
>>> assigned_category("U18C C21A")
"FALSE"
>>> assigned_category("A22U G39U")
"FALSE"
>>> assigned_category("C3G G29C")
"FALSE"
